target: ~100 representative kinases (Homo sapiens, UniProt Q8TF76); construct: Recombinant protein kinase domains with a concentration of 2 μM; assay: DSF 100 kinase selectivity screen; assay type: binding; conditions: protein GSG2; average of three replicates;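 also: compound tested at 20 µM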
Sequence (Q8TF76 whole entry, the tested form may be a part): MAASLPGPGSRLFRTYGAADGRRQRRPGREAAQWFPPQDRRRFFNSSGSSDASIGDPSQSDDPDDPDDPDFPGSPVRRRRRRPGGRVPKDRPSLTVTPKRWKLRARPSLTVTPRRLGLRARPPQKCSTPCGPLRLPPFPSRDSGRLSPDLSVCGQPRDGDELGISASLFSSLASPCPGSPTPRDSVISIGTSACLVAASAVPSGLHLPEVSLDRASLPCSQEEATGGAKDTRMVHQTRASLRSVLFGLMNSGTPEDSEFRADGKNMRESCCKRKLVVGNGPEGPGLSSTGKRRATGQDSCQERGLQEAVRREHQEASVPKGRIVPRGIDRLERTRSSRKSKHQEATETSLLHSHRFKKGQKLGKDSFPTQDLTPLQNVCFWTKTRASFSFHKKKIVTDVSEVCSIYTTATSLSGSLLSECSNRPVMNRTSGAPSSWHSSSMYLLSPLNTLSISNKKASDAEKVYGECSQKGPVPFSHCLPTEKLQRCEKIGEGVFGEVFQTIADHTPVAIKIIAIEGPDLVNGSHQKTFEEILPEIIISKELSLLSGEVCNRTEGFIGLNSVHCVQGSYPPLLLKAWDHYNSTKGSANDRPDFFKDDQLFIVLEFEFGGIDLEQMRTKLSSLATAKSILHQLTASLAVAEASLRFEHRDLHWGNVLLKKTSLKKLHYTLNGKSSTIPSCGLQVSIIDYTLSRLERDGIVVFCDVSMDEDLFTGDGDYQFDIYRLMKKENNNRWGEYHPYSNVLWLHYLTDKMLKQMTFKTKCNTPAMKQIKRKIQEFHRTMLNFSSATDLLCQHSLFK
Mark each entry fulfilled if its dTm sits below 0.3 K, and not fulfilled for all others.

Example results:
>  <compound>
Cn1cc(-c2c[nH]c3ncnc(N4CCOCC4)c23)cc1C#N

>  <group-label>
not fulfilled

$$$$
>  <compound>
CN[C@@H]1C[C@H]2O[C@@](C)([C@@H]1OC)n1c3ccccc3c3c4c(c5c6ccccc6n2c5c31)C(=O)NC4

>  <group-label>
not fulfilled

$$$$
>  <compound>
CNC(=O)c1cc(Oc2ccc(NC(=O)Nc3cc(C(C)(C)C)nn3-c3ccc4ncccc4c3)c(F)c2)ccn1 [Rebastinib, reference compound]

>  <group-label>
fulfilled

$$$$
>  <compound>
COc1cc2c(Oc3ccc(NC(=O)C4(C(=O)Nc5ccc(F)cc5)CC4)cc3F)ccnc2cc1OCCCN1CCOCC1 [Foretinib, reference compound]

>  <group-label>
not fulfilled

$$$$
>  <compound>
Cc1cc(NC(=O)C2(C(=O)Nc3ccc(F)cc3)CC2)cc(-c2c[nH]c3ncnc(N4CCOCC4)c23)c1

>  <group-label>
fulfilled

$$$$

Okay, next one:
Query: I wonder whether O=C(Nc1ccc(F)cc1)C1(C(=O)Nc2cccc(-c3c[nH]c4ncnc(N5CCOCC5)c34)c2)CC1 has dTm below 0.3 K. Can you tell?
Response: fulfilled

====

# dTm annotations
Target: ~100 representative kinases (Homo sapiens, UniProt Q9UEE5)
Construct: Recombinant protein kinase domains with a concentration of 2 μM
Sequence (Q9UEE5 1-414): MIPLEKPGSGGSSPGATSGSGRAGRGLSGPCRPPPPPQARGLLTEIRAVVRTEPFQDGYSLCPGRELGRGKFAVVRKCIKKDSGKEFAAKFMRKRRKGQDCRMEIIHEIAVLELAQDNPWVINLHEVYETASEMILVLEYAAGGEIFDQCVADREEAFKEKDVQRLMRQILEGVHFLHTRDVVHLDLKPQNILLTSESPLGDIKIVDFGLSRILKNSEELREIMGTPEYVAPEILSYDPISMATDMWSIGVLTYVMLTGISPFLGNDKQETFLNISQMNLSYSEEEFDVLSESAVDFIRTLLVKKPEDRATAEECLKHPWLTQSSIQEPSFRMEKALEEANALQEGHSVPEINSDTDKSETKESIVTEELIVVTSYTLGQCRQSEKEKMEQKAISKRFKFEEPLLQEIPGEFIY
Assay: DSF 100 kinase selectivity screen;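 also: compound tested at 20 µM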
Assay type: binding
Details: Protein STK17A; DSF; average of three replicates
Experimental: Recombinant protein kinase domains with a concentration of 2 μM were mixed with a 20 μM compound solution in dimethyl sulfoxide (DMSO), 20 mM Hepes (pH 7.5), and 500 mM NaCl. SYPRO Orange (5000×, Invitrogen) was added as a fluorescence probe (1μl/ml). Subsequently, temperature-dependent protein unfolding profiles were measured using the QuantStudio 5 realtime PCR machine (Thermo Fisher Scientific, Waltham, MA, USA). […] The temperature was raised with a step rate of 3°C/min. […]
The reply should contain only the number, in K.

Would you please look over these solved cases?
>  <compound>
O=C(Nc1cccc(-c2c[nH]c3ncnc(N4CCOCC4)c23)c1)C1(C(=O)Nc2cccc3c2CCC3)CC1 [Compound 11]

>  <measured-on>
~100 representative kinases (Homo sapiens, UniProt Q9UEE5)

>  <unit-descriptor>
K

>  <dTm>
1.27

$$$$
>  <compound>
O=C(Nc1cccc(-c2c[nH]c3ncnc(N4CCOCC4)c23)c1)C1(C(=O)Nc2ccc(F)c(Br)c2)CC1 [Compound 19]

>  <measured-on>
~100 representative kinases (Homo sapiens, UniProt Q9UEE5)

>  <unit-descriptor>
K

>  <dTm>
2.37

$$$$
>  <compound>
COc1cc(C(=O)N2CCOCC2)c(F)cc1Nc1nc(N(C)C)c2c(Cl)c[nH]c2n1 [Compound 36]

>  <measured-on>
~100 representative kinases (Homo sapiens, UniProt Q9UEE5)

>  <unit-descriptor>
K

>  <dTm>
0.25

$$$$
>  <compound>
CC(C)(C)c1cccc(NC(=O)C2(C(=O)Nc3cccc(-c4c[nH]c5ncnc(N6CCOCC6)c45)c3)CC2)c1 [Compound 22]

>  <measured-on>
~100 representative kinases (Homo sapiens, UniProt Q9UEE5)

>  <unit-descriptor>
K

>  <dTm>
-0.64

$$$$

The compound identified as O=C(Nc1ccc(Cl)cc1)C1(C(=O)Nc2cccc(-c3c[nH]c4ncnc(N5CCOCC5)c34)c2)CC1 [Compound 13] registered its dTm at 1.64

Lab book: dTm of O=C(Nc1cccc(-c2c[nH]c3ncnc(N4CCOCC4)c23)c1)C1(C(=O)Nc2ccc(F)c(Cl)c2)CC1 [Compound 18] noted as 2.92

Recorded dTm (compound Cc1ccc(C(=O)Nc2ccc(CN3CCN(C)CC3)c(C(F)(F)F)c2)cc1C#Cc1c[nH]c2ncnc(N3CCOCC3)c12 [Compound 1] ): 2.74

Noted for COc1cc2c(Oc3ccc(NC(=O)C4(C(=O)Nc5ccc(F)cc5)CC4)cc3F)ccnc2cc1OCCCN1CCOCC1 [Foretinib, reference compound] : its dTm reads -0.14

// sample C[C@@H]1CN(c2cc(-c3n[nH]c4ccc(OC5(C)CC5)cc34)ncn2)C[C@H](C)O1 [MLi2] , its dTm was -0.26

Value of measured dTm for the entry O=C(Nc1cccc(-c2c[nH]c3ncnc(N4CCOCC4)c23)c1)C1(C(=O)Nc2ccc(F)cc2F)CC1 [Compound 23] : -0.31

get_value(item= CC(=O)N1CCN(c2nc(Cl)nc3[nH]cc(-c4cccc(NC(=O)Nc5cc(C(C)(C)C)nn5-c5ccc(C)cc5)c4)c23)CC1 [Compound 31] , readout=dTm) returns -0.15

# dTm (compound: O=C(Nc1cccc(-c2c[nH]c3ncnc(N4CCOCC4)c23)c1)C1(C(=O)Nc2cc(Br)c(F)cc2F)CC1 [Compound 25] ) is -0.61

The recorded dTm for entry Cc1cc(NC(=O)C2(C(=O)Nc3cccc(-c4c[nH]c5ncnc(N6CCOCC6)c45)c3)CC2)ccc1F [Compound 20] equals 2.25

The value of dTm measured for the compound COc1ccc(NC(=O)C2(C(=O)Nc3cccc(-c4c[nH]c5ncnc(N6CCOCC6)c45)c3)CC2)cc1 [Compound 16] turned out to be -0.48

Field dTm (entry O=C(Nc1ccc(F)cc1)C1(C(=O)Nc2cccc(-c3c[nH]c4ncnc(N5CCOCC5)c34)c2)CC1 [Compound 2] ) reads 0.36
